experiment: Renal and hematological toxicity, single i.p. dose (Table 8); details: blood urea nitrogen; single i.p. dose (mg/kg): 1,4-DACH-Pt^II CBDCA 300, 1,4-DACH-Pt^IV Cl4 8.0, Tetraplatin 8.0, Cis-platin 12.0, Carboplatin 150; saline control 20.9
Examples of compounds with documented BUN d.5 follow.
API: value field is a number in mg %; no unit string.

The examples below pair each entry with its known result.
>>> df
                                   compound  reported_endpoint  unit_of_measurement  obs_value
0  NC1CCC(N)CC1.[Cl][Pt]([Cl])([Cl])[Cl] (stereo not shown)            BUN d.5                 mg %       21.3
1  NC1CCC(N)CC1.O.O=C([O-])C1(C(=O)[O-])CCC1.[Pt+2]            BUN d.5                 mg %       18.0
2  N[C@@H]1CCCC[C@H]1N.[Cl][Pt+2]([Cl])([Cl])[Cl] [Tetraplatin, reference compound]            BUN d.5                 mg %       17.2

Identify measured BUN d.5 corresponding to `N.N.O=C([O-])C1(C(=O)[O-])CCC1.[Pt+2]`
15.8

* * *

Examples of compounds with documented IC50 follow.
tested on: L1210/DDP cells; test: MTT cytotoxicity, cisplatin-resistant L1210/DDP (Example 5, Table 10); type: cell-based, murine; settings: 72 hr (3 days) continuous exposure
API: value field is a number in nM; no unit string.

                                   compound      test_system  unit_of_measurement  obs_value
0  CCCC(=O)[O][Pt]([Cl])([Cl])[O]C(=O)CCC.NC1CCC(N)CC1 [Compound 22, (cis-1,4-DACH)PtCl2 trans-(butyrate)2]  L1210/DDP cells                   nM        130
1  CCCC(=O)[O][Pt]([Cl])([Cl])[O]C(=O)CCC.N[C@@H]1CCCC[C@H]1N [Compound 17]  L1210/DDP cells                   nM        220
2  N[C@@H]1CCCC[C@H]1N.[Cl][Pt+2]([Cl])([Cl])[Cl] [Tetraplatin, reference compound]  L1210/DDP cells                   nM        440
3  CCC(=O)[O][Pt]([Cl])([Cl])[O]C(=O)CC.N[C@@H]1CCCC[C@H]1N [Compound 16, (R,R-1,2-DACH)PtCl2 trans-(Propionate)2]  L1210/DDP cells                   nM        560
4  N[C@@H]1CCCC[C@H]1N.O=C([O][Pt]([Cl])([Cl])[O]C(=O)C(F)(F)F)C(F)(F)F [Compound 15]  L1210/DDP cells                   nM        850

Identify measured IC50 corresponding to CC(=O)[O][Pt]([Cl])([Cl])[O]C(C)=O.NC1CCCCC1N [Compound 14, (cis-1,2-DACH)PtCl2 trans(acetate)2]
115000

Identify measured IC50 corresponding to CC(=O)[O][Pt]([Cl])([Cl])[O]C(C)=O.N[C@H]1CCCC[C@@H]1N [Compound 13, (S,S-1,2-DACH)PtCl2 trans-(acetate)2]
7000

Identify measured IC50 corresponding to CCC(=O)[O][Pt]([Cl])([Cl])[O]C(=O)CC.NC1CCC(N)CC1 [Compound 21, (cis-1,4-DACH)PtCl2 trans-(propionate)2]
500

Identify measured IC50 corresponding to CC(=O)[O][Pt]([Cl])([Cl])[O]C(C)=O.N[C@@H]1CCCC[C@H]1N [Compound 12, (R,R-1,2-DACH)PtCl2 trans(acetate)2]
700

Identify measured IC50 corresponding to CCCCC(=O)[O][Pt]([Cl])([Cl])[O]C(=O)CCCC.N[C@@H]1CCCC[C@H]1N [Compound 18, (R,R-1,2-DACH)PtCl2 trans(pentanoate)2]
270

Identify measured IC50 corresponding to CCCCCCC(=O)[O][Pt]([Cl])([Cl])[O]C(=O)CCCCCC.N[C@@H]1CCCC[C@H]1N [Compound 20, (R,R-1,2-DACH)PtCl2trans(heptanoate)2]
700

Identify measured IC50 corresponding to N.N.[Cl][Pt][Cl] [Cis-platin, cis-diaminedichloroplatinum(II), reference compound]
32800

Identify measured IC50 corresponding to CCCCCC(=O)[O][Pt]1([Cl])([Cl])([O]C(=O)CCCCC)[NH]C2CCCCC2[NH]1 [Compound 19, (R,R-1,2-DACH)PtCl2 trans-(hexanoate)2]
230
